molecular target: c-Cbl (residues 47-435) (Homo sapiens (Human))
Sequence (P22681 47-435): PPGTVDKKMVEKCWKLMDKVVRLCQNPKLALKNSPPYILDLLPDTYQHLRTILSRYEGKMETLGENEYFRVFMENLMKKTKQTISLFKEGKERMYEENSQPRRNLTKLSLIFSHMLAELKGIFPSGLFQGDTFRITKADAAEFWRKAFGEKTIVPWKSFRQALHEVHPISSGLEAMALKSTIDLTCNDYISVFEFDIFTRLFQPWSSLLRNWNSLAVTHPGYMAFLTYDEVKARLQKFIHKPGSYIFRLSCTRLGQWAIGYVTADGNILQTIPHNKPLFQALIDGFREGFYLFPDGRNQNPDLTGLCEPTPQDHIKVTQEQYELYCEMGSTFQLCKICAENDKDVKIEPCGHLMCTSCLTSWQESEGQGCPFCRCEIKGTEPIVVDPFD
pKd: −log10 of the molar value.
Class boundaries, taken from values of pKd, are as follows: low = under 7, middle = from 7 up to 8, high = 8 and over

// known answers, use as guide
C[C@H]1C[C@](c2cccc(N3Cc4c(cc(CNC5(C)CCC5)cc4C(F)(F)F)C3=O)c2)(c2nncn2C)O1	low
Cn1cnnc1[C@]1(c2cccc(N3Cc4c(cc(CNC5(C)CCC5)cc4C(F)(F)F)C3=O)c2)C[C@@](O)(C(F)(F)F)C1	low
C[C@@H](NC1(C)CCC1)c1cc(Cl)c2c(c1)C(=O)N(c1cccc([C@]3(c4nncn4C)C[C@@H](F)C3)c1)C2 (single isomer, unassigned)	high
Cl.Cn1cnnc1[C@]1(c2cccc(N3Cc4c(cc(CNC5(C)CCC5)cc4C(F)(F)F)C3=O)c2)C[C@@H](Cl)C1 [Compound 137, hydrochloride]	high
CO[C@H]1C[C@@](c2cc(NC3CCCC3)cc(N3Cc4c(cc(CNC5(C)CCC5)cc4C(F)(F)F)C3=O)c2)(c2nncn2C)C1	low
CC[C@](F)(c1cccc(N2Cc3c(cc(CNC4(C)CCC4)cc3C(F)(F)F)C2=O)c1)c1nncn1C (single isomer, unassigned)	low

Challenge: Please indicate the class for Cn1cnnc1[C@H](c1cccc(N2Cc3c(cc([C@H](NC4(C)CCC4)C4CC4)cc3C(F)(F)F)C2=O)c1)C1COC1 (single isomer, unassigned) based on its pKd.
Response given: low

Challenge: Please indicate the class for Cn1cnnc1C1(c2cccc(N3Cc4c(cc(CNC5(C)CCC5)cc4C(F)(F)F)C3=O)c2)CSC1.O=CO [Compound 329, formate] based on its pKd.
Response given: middle

---

Items are presented alongside their recorded IC50.
biological target: c-Cbl (Homo sapiens (Human), UniProt P22681)
Quick note: give the figure in nM, leave out the unit.

Worked cases, IC50 given:
Cn1cnnc1[C@@H](c1cccc(N2Cc3c(Cl)cc(CNC4(C)CCC4)cc3C2=O)c1)[C@H]1C[C@H](F)C1 (single isomer, unassigned)	1600
CC1(NCc2cc3c(c(C(F)(F)F)c2)CN(c2cccc([C@H](C4COC4)n4ccnn4)c2)C3=O)CCC1 (single isomer, unassigned)	20000

Now look at this one.
Challenge: Provide the documented IC50 with c-Cbl (Homo sapiens (Human), UniProt P22681) as the system for CO[C@H]1C[C@](c2cccc(N3Cc4c(cc(CNC5CC(C#N)C5)cc4C(F)(F)F)C3=O)c2)(c2nncn2C)C1 (stereo partly drawn)
Response given: 30

---

molecular target: Cbl-b (Homo sapiens (Human), UniProt Q13191); assay: Cbl-b LCK Ub TR-FRET assay (Cbl-b Lck HTRF); assay type: biochemical; details: ratio C-cbl Lck HTRF IC50 / Cbl-b Lck HTRF IC50
Sequence (Q13191 40-426): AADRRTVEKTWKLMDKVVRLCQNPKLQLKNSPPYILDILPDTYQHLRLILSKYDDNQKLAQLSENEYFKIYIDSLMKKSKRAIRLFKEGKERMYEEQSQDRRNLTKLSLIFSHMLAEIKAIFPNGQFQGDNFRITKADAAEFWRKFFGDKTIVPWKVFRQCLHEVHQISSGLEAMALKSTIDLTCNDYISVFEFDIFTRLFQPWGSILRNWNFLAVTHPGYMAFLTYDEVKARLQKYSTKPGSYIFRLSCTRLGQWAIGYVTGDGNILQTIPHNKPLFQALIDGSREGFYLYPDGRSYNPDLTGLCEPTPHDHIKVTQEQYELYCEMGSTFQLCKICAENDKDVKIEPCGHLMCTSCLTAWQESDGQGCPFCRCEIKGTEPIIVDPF
Class boundaries, taken from values of fold-selectivity (Cbl-b over C-cbl), are as follows: low bin: < 2 x; mid bin: ≥ 2 x and < 4 x; high bin: ≥ 4 x

// known answers, use as guide
Cn1cnnc1[C@H](C[C@H]1CCOC1)c1cccc(N2Cc3c(cc(CNC4(C)CCC4)cc3C(F)(F)F)C2=O)c1 [Compound 278]	low bin
CC(=O)N1CC([C@H](c2cccc(N3Cc4c(cc(CNC5(C)CCC5)cc4C(F)(F)F)C3=O)c2)c2nncn2C)C1 (single isomer, unassigned) [Compound 401]	low bin
Cn1cnnc1[C@]1(c2cccc(N3Cc4c(cc(CNC5(C)CCC5)cc4C(F)(F)F)C3=O)c2)C[C@](F)(CF)C1 [Compound 105]	mid bin

Challenge: Please indicate the class for Cn1cnnc1[C@H](CC1CCC1)c1cccc(N2Cc3c(cc(CNC4(C)CCC4)cc3C(F)(F)F)C2=O)c1 [Compound 268] based on its fold-selectivity (Cbl-b over C-cbl).
Response given: low bin

Challenge: Please indicate the class for CCOC1CC([C@@H](c2cccc(N3Cc4c(cc(CNC5(C)CCC5)cc4C(F)(F)F)C3=O)c2)c2nncn2C)C1 (single isomer, unassigned) [Compound 266] based on its fold-selectivity (Cbl-b over C-cbl).
Response given: mid bin

Challenge: Please indicate the class for Cn1cnnc1[C@]1(c2cccc(N3Cc4c(cc(CNC5(C)CCC5)cc4C(F)(F)F)C3=O)c2)C[C@H](Cl)C1 [Compound 138] based on its fold-selectivity (Cbl-b over C-cbl).
Response given: low bin

Challenge: Please indicate the class for C[C@@H](NC1(C)CCC1)c1cc(Cl)c2c(c1)C(=O)N(c1cccc([C@]3(c4nncn4C)C[C@H](F)C3)c1)C2 (single isomer, unassigned) [Compound 311] based on its fold-selectivity (Cbl-b over C-cbl).
Response given: low bin

Challenge: Please indicate the class for C[C@H](NC1(C)CCC1)c1cc2c(c(C(F)(F)F)c1)CN(c1cccc(C3(c4nncn4C)CC(F)(F)C3)c1)C2=O (single isomer, unassigned) [Compound 173] based on its fold-selectivity (Cbl-b over C-cbl).
Response given: mid bin

Challenge: Please indicate the class for C[C@@H]1C[C@](c2cccc(N3Cc4c(cc(CNC5(C)CCC5)cc4C(F)(F)F)C3=O)c2)(c2nncn2C)O1 [Compound 126] based on its fold-selectivity (Cbl-b over C-cbl).
Response given: mid bin

Challenge: Please indicate the class for Cn1cnnc1[C@@H](c1cccc(N2Cc3c(cc(CNC4(C)CCC4)cc3C(F)(F)F)C2=O)c1)C1CC(F)C1 (single isomer, unassigned) [Compound 129] based on its fold-selectivity (Cbl-b over C-cbl).
Response given: mid bin

Challenge: Please indicate the class for CC(=O)N1CC([C@@H](c2cccc(N3Cc4c(cc(CNC5(C)CCC5)cc4C(F)(F)F)C3=O)c2)c2nncn2C)C1 (single isomer, unassigned) [Compound 402] based on its fold-selectivity (Cbl-b over C-cbl).
Response given: high bin
